Data credit: PubChem BioAssay (Tox21)

- assayed-target: Cytochrome P450 1A2 (Homo sapiens) (UniProt P05177)
- Sequence (P05177 whole entry, looked up): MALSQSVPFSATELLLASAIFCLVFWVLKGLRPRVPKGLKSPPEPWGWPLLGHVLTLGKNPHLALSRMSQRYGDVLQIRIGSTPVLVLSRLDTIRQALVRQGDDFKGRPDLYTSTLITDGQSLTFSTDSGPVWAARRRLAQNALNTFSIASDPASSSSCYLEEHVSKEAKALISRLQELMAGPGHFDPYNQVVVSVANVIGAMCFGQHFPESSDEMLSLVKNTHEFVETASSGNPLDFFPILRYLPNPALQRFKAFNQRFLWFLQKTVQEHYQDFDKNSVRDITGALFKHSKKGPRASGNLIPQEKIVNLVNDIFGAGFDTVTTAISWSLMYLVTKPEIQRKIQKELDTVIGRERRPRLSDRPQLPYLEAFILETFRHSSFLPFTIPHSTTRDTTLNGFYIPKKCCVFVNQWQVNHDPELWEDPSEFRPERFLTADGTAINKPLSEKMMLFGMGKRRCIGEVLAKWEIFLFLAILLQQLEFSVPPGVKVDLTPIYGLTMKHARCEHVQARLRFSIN
- assay-overview: Cytochrome P450 Family 1 Subfamily A Member 2 (CYP1A2) small molecule antagonists: luciferase reporter qHTS assay (AID 1671199); also: nearly all actives have a fitted effect of over 50% in size
- particulars: P450-Glo CYP1A2 enzyme, luciferin luminescence, 1 h; series mostly up to 115 µM
- Excerpt: National Center for Advancing Translational Sciences [NCATS] U.S. Environmental Protection Agency [EPA] National Institutes of Environmental Health Sciences [NIEHS] National Toxicology Program [NTP] U.S. Food and Drug Administration [FDA] Cytochrome P450 (CYP) enzymes are membrane-bound hemeproteins that play a key role in metabolism of drugs and xenobiotics. […] The luciferin products formed are detected with a luciferin detection reagent, and the amount of light produced is proportional to CYP activity. […]
Inconclusive results are not listed. Active and inactive are the calls of the source. Calls follow the shape of the dose curve; as a rule, active = well fitted inhibition curve with a large enough effect in the repeat runs; inconclusive = weak or mixed curves; inactive = no such curve, though single readings can be large or run the other way.
Classes to choose from: active, inactive

Would you please look over these solved cases?
For Cc1cc(C(C)(C)c2cc(C)c(O)c(C)c2)cc(C)c1O , which call appears in the assay record?
active

Short answer needed: outcome of this test for CCCN(CCC)CCc1c[nH]c2ccccc12 ?
active

Field: outcome | Entry: CC(C)Oc1cccc(NC(=O)c2ccccc2C(F)(F)F)c1
active

Others:
Any idea what this test logged for Oc1ccc(C(=C(Cl)Cl)c2ccc(O)cc2)cc1 ?
active

Which result was noted for this compound in the test: CCOP(=S)(OCC)SCS(=O)(=O)C(C)(C)C
active

For CC(C)(C)C(O)/C(=C\c1ccc(Cl)cc1Cl)n1cncn1 (configuration not stated) , which call appears in the assay record?
active

Which outcome did this test record for the compound CCc1ccccc1C ?
inactive

Name the outcome recorded for C=CCC1=C(C)C(OC(=O)C2C(C=C(C)C)C2(C)C)CC1=O (configuration not stated) in the assay.
active

* * *

- assay-overview: qHTS assay to identify small molecule antagonists of the estrogen receptor alpha (ER-alpha) signaling pathway - cell viability counter screen (AID 743074);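 also: HEK293 cells carrying ER-alpha-UAS-bla reporter stimulated with 17beta-estradiol; nearly all actives have a fitted effect of over 45% in size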
- particulars: ERalpha-bla HEK293 viability, CellTiter-Glo luminescence, 18 h; series mostly up to 69.4 µM
Records with an inconclusive call do not appear. Active and inactive are the calls of the source. The call rests on the fitted dose curve.
Choose one outcome from this list and give only that: active, inactive

How did this test come out for CC(C)[C@H](C(=O)OC(C#N)c1cccc(Oc2ccccc2)c1)c1ccc(OC(F)F)cc1 (stereo partly drawn) ?
inactive

What did the test return for Fc1cccc(Cl)c1CCl ?
inactive

Any idea what this test logged for O=[N+]([O-])c1ccc2ccc3cccc4ccc1c2c34 ?
inactive

Others:
// param item: Cc1cc(C(F)(C(F)(F)F)C(F)(F)F)ccc1NC(=O)c1cccc(I)c1C(=O)NC(C)(C)CS(C)(=O)=O ; yields the recorded call
inactive

Returns: the outcome recorded for O=C1c2ccccc2C(=O)C1C(=O)C(c1ccccc1)c1ccc(Cl)cc1 (stereo not drawn) in this assay.
active

# fetch the recorded call for ClC(Cl)=C(c1ccc(Cl)cc1)c1ccc(Cl)cc1 here
inactive

* * *

- assayed-target: Bile acid receptor (Homo sapiens) (UniProt Q96RI1)
- Sequence (Q96RI1 whole entry, looked up): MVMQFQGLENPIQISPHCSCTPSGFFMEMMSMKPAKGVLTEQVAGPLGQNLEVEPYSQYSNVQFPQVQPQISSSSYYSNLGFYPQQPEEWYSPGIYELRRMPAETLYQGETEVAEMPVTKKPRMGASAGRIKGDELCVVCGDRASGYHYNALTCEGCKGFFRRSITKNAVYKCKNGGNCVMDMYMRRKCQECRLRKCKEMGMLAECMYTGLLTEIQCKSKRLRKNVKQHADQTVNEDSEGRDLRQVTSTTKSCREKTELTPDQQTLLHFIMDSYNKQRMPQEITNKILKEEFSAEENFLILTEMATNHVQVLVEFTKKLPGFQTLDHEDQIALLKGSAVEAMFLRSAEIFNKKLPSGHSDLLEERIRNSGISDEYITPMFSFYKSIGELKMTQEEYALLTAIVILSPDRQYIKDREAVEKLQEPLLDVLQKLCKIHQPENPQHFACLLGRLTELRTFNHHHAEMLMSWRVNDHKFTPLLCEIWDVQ
- assay-overview: qHTS assay to identify small molecule antagonists of the farnesoid-X-receptor (FXR) signaling pathway (AID 743217)
- particulars: HEK293T FXR-UAS-bla, beta-lactamase ratio, CDCA-stimulated, 16 h; series mostly up to 62.6 µM
Records with an inconclusive call do not appear. The source made the active and inactive calls. The call rests on the fitted dose curve; in most records, active means well fitted inhibition curve with a large enough effect in the signal ratio in the repeat runs (not every such curve was filed as active); inconclusive means weak or mixed curves, or effect the other way; inactive means no such curve, though single readings can be large or run the other way; the % refers to the signal ratio.
Respond using exactly one of the listed classes: active, inactive

Sample answers from the record:
Recorded test outcome, item FC(Cl)(Cl)Cl
inactive

Identify the outcome logged in this assay for the compound shown: CN(C)CCc1c[nH]c2ccc(O)cc12
inactive

Continuing:
# lookup: test call for Cc1cc(C(F)(C(F)(F)F)C(F)(F)F)ccc1NC(=O)c1cccc(I)c1C(=O)NC(C)(C)CS(C)(=O)=O
inactive

// return assay outcome for CC(C)CCCCCOC(=O)c1ccccc1C(=O)OCCCCCC(C)C
inactive

Record request — test call for COc1cccc(C(=O)CCN[C@@H](C)[C@H](O)c2ccccc2)c1
inactive

How was FC(F)(F)c1cccc(C2=CCN(CCc3ccc4ccccc4c3)CC2)c1 classified in this test?
inactive

Short answer needed: outcome of this test for C[C@]12Cc3nonc3C[C@@H]1CC[C@@H]1[C@@H]2CC[C@@]2(C)[C@H]1CC[C@]2(C)O ?
inactive

What was the test verdict on CC(Cc1ccc(C(C)(C)C)cc1)CN1C[C@@H](C)O[C@@H](C)C1 (stereo partly specified) ?
inactive

Could you kindly confirm the outcome this assay logged for C[C@]12CC[C@@H]3c4ccc(OC(=O)N(CCCl)CCCl)cc4CC[C@H]3[C@@H]1CC[C@@H]2O ?
active

Lab log entry: CN(C)c1ccc(N=Nc2ccccc2)cc1 — outcome as called in the assay?
inactive

How was Cc1cc(C)c(C2=C(OC(=O)CC(C)(C)C)C3(CCCC3)OC2=O)c(C)c1 classified in this test?
inactive
